Tested on: RXRa DBDmut IVT, anti-RXR (DBD mutation: RXRa K156A/R161A, NR concentration 90 nM)
Experiment: PBM binding z-score (relative to random genomic background probes); higher = stronger binding; sequences stand for … in GC…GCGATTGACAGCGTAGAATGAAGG
OBSERVATION TYPE: PBM binding z-score
Reply with the value as a number alone.

Known PBM binding z-score results, listed for orientation:
1. ATATGTAGGTTGGGGTCATTCAGAAAGTAGGGAA    3.69
2. TGTCAACGTTCAAAGGTAACGTAAGTATCCACAC    -0.465

Kindly review the next sequence as well.
Complete the entry with PBM binding z-score for TCTGCTAGGTCAACGTTGGTCAGCTAATCTGCTA
1.06

---

System: RXRa DBDmut IVT, anti-RXR (DBD mutation: RXRa K156A/R161A, NR concentration 90 nM)
Experiment: PBM binding z-score (relative to random genomic background probes); higher = stronger binding; sequences stand for … in GC…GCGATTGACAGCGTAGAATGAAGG
OBSERVATION TYPE: PBM binding z-score
Reply with just the number.

Some solved entries appear below for comparison.
1. CGAACGAGGTCAAAGGACAGTGAAAGGCGACGTA    4.61
2. GGAACGAGGGCAAAGTTCATAGCATCTGTCGACG    3.54
3. CGTCAAAGTTCAAGGTCACGTAACAGAAAGCAGC    4.52

Continue with the next sequence.
Report PBM binding z-score under test system RXRa DBDmut IVT, anti-RXR (DBD mutation: RXRa K156A/R161A, NR concentration 90 nM) for CAAACTAGGTCAAGAGGTCAAAGTTCGCTTCCCG .
3.49

---

Listed here: items and their measured PBM binding z-score.
Test system: PPARg homodimer (NR concentration 180 nM)
Test: PBM binding z-score (relative to random genomic background probes); higher = stronger binding; sequences stand for … in GC…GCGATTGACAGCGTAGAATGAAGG
Just the number, please, no unit attached.

1) ATCGAAAGGTCCACGAGGTGAGTATACACCGTTT    0.167
2) CCTACTGGGCCGTTCAGAGGTCATTGATCATATG    1.94
3) TCTAGTTGGTCACGGAGGGCACACACGACGGGTA    1.2
4) TTACCAAGGTGAAAGGTCGTTGCTGCACGCCTTG    1.88
5) CGAACAAGGTCATTGACAGGACAGTGAATAGTAA    2.11

In one line, give reported PBM binding z-score of the entry CCGACGGGGGCAAAGGTTACCATACTCAGTACGA .
2.4

Give the reported PBM binding z-score for this sequence. GCTGCGAGGTCAACTGATGGTCAGCTAAAGCTCG
3.57

Please give measured PBM binding z-score of the following entry: CCTCGGAGGACAGAAGGTCAAAGCTGTCCGCTTT
2.07

Could you please provide reported PBM binding z-score for GCTGCTAGTTCAACTGATGGTCAGCTAAAGCTCG ? Thanks!
-0.347

Give a short answer stating reported PBM binding z-score for CGAACTAGGTCATTGACAGGACAATGAATAGTAA .
1.77

---

Tested on: RXRa homodimer (NR concentration 180 nM)
Test: PBM binding z-score (relative to random genomic background probes); higher = stronger binding; sequences stand for … in GC…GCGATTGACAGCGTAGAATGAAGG
// reported PBM binding z-score per item
# output: bare number, no unit

Solved cases below.
1. ATCGAAAGGTCGAAGGTGCGTATACCCACCCGAA    4.23
2. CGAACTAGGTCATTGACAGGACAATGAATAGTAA    2.79
3. CCGAGTTGGTCAAGGTCACACACGCTATAGGTAC    4.46
4. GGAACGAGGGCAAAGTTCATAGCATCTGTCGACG    6.27

// Input: AGTCAAAGTTGAGGACGAGGTAACGTAAAGCACG . Output its PBM binding z-score only.
0.856

Hello, please tell me recorded PBM binding z-score for this one: ACTCGGAGGACAAAGGTCAGGGCTACGCCAGTGA
6.71
